Muscarinic acetylcholine receptor M3 (Rattus norvegicus, UniProt P08483) pKi data
Sequence (P08483 whole entry): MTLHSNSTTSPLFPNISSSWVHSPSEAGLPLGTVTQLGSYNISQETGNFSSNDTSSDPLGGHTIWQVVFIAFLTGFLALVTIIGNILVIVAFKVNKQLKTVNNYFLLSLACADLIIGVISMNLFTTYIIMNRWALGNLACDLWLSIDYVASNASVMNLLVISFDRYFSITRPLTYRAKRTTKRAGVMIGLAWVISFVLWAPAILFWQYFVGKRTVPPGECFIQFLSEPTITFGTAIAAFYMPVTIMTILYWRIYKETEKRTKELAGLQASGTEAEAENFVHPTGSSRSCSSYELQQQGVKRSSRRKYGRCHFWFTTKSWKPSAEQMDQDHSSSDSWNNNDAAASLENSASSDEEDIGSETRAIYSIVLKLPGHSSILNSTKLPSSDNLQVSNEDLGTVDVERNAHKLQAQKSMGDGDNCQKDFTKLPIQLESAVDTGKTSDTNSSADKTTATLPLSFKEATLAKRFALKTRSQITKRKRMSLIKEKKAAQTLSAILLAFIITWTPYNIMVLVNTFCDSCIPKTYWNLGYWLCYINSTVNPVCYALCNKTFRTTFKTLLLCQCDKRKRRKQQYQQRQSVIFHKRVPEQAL
pKi: −log10 of the molar value.
measureName: pKi

1. CN(CCCCCCCCN(C)CCCCCCN1CCC2(CC1)OC(=O)C(c1ccccc1)(c1ccccc1)O2)CCCCCCN1CCC2(CC1)OC(=O)C(c1ccccc1)(c1ccccc1)O2 = 6.01
2. CN(CCCCCCCCN(C)CCCCCCN1CCC(OC(=O)C(c2ccccc2)c2ccccc2)CC1)CCCCCCN1CCC(OC(=O)C(c2ccccc2)c2ccccc2)CC1 = 5.67
